// provenance: ChEMBL document CHEMBL4011643

Recorded deltaTm for the following compounds
- test_protocol: Stabilization of FAM/TAMRA-labeled AT-rich DNA duplex (unknown origin) assessed as change in melting temperature at 5 uM by FRET-based assay
Give the value, in units of °C, as a plain number.

Below, 2 compounds whose answers are already recorded.
| cpd_smiles | deltaTm [°C] |
| --- | --- |
| Cc1nc2ccc(C(=O)Nc3cccc(-c4ccc(-n5c(C)nc6cc(C(=O)NCCCN(C)C)ccc65)nc4)c3)cc2[nH]1 | 2.1 |
| Cc1nc2ccc(C(=O)Nc3cccc(-c4ccc(-n5c(C)nc6cc(C(=O)NCCCCN(C)C)ccc65)nc4)c3)cc2[nH]1 | 0.6 |

Request: What does the data say about its deltaTm? Entry: `Cn1cc(NC(=O)c2cc(NC(=O)CN=C(N)N)cn2C)cc1C(=O)NCCC(=N)N`
Response: 22.2

Request: What does the data say about its deltaTm? Entry: `Cc1nc2ccc(C(=O)Nc3cccc(-c4ccc(-n5c(C)nc6cc(C(=O)NCCN(C)C)ccc65)nc4)c3)cc2[nH]1`
Response: 0.9

* * *

- Tested on: Acinetobacter baumannii
- test_protocol: Antibacterial activity against Acinetobacter baumannii AYE after 20 hrs in the presence of PMBN by broth microdilution method
- Format: functional
measured_parameter: MIC (µg/mL)
Give the value, in units of µg/mL, as a plain number.

Below, 2 molecules whose answers are already recorded.
| cpd_smiles | MIC (µg/mL) |
| --- | --- |
| Cc1nc2ccc(C(=O)Nc3cccc(-c4ccc(-n5c(C)nc6cc(C(=O)NCCN(C)C)ccc65)nc4)c3)cc2[nH]1 | 32 |
| Cc1nc2ccc(C(=O)Nc3cccc(-c4ccc(-n5c(C)nc6cc(C(=O)NCCCN(C)C)ccc65)nc4)c3)cc2[nH]1 | 8 |

Now turn to the next molecule.
Request: What does the data say about its MIC? Entry: `Cc1nc2ccc(C(=O)Nc3cccc(-c4ccc(-n5c(C)nc6cc(C(=O)NCCCCN(C)C)ccc65)nc4)c3)cc2[nH]1`
Response: 8
